Data origin, for the record: the supplement of paper PMC10126150

# switch fluorescence ratio per entry
# Tested on: ATP;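 note: ATP exposure 15 min at 22 °C before imaging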
# method_notes: switch fluorescence ratio, 500 uM ATP over buffer (Cy3 cluster intensity, sum of 5 cycles each) (fold (ratio)); higher = stronger signal-on switching upon ATP binding; sequences stand for … in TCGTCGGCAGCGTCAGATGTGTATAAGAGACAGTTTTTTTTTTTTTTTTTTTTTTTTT…TC
# condition_set: aptamer strand: ATP DNA aptamer (quencher-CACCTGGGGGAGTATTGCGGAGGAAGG + anchor), 100 nM annealed; ATP concentration: 500 uM
Could you respond with only the numeric value?

Record `GACAATTAGT` , field switch fluorescence ratio: 1.04

Looking up `TCCCCAATTT` , I see its switch fluorescence ratio listed as 1.13

Record `GGCGTTGTTC` . Reported switch fluorescence ratio: 0.984

The value of switch fluorescence ratio measured for the sequence `CGACTCGAAA` turned out to be 1.02

Measured switch fluorescence ratio, `TAAGCGATCA` : 1.02

Entry `TAGGAAATTT` — recorded switch fluorescence ratio = 1.03

* * *

# System: ATP;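 note: ATP exposure 15 min at 22 °C before imaging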
# method_notes: switch fluorescence ratio, 500 uM ATP over buffer (Cy3 cluster intensity, sum of 5 cycles each) (fold (ratio)); higher = stronger signal-on switching upon ATP binding; sequences stand for … in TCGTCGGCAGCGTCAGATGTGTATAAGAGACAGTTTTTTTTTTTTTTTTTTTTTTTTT…TC
# condition_set: aptamer strand: ATP DNA aptamer (quencher-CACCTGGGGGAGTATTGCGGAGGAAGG + anchor), 100 nM annealed; ATP concentration: 500 uM
recorded_metric: switch fluorescence ratio
The answer should be a number; do not append a unit.

// worked examples, switch fluorescence ratio included
INSERT INTO measurements (query_sequence, value) VALUES
  ('TTTGGATTTC', 1),
  ('TAGCCGGGGA', 1.01),
  ('CAGGTCCTTT', 1.01),
  ('TTAATGCTGG', 1);

Turning to the following sequence.
Recorded switch fluorescence ratio (sequence `AAAATTTAGG` ): 0.986

* * *

# Test system: ATP;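 note: ATP exposure 15 min at 22 °C before imaging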
# method_notes: switch fluorescence ratio, 500 uM ATP over buffer (Cy3 cluster intensity, sum of 5 cycles each) (fold (ratio)); higher = stronger signal-on switching upon ATP binding; sequences stand for … in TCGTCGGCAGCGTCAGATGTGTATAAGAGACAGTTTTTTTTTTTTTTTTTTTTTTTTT…TC
# condition_set: aptamer strand: ATP DNA aptamer (quencher-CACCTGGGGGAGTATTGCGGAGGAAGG + anchor), 100 nM annealed; ATP concentration: 500 uM
recorded_metric: switch fluorescence ratio
Could you respond with only the numeric value?

INSERT INTO measurements (query_sequence, recorded_metric, value) VALUES
  ('GATAGGGGGT', 'switch fluorescence ratio', 1.01),
  ('AGAGTCAGTG', 'switch fluorescence ratio', 0.982),
  ('GGGAGGAGGA', 'switch fluorescence ratio', 0.974);

So, `ACTGTGTGTT` ? Its switch fluorescence ratio was 1.01

Item: `ATAGAAGAAA` | switch fluorescence ratio: 1.02

sequence `TTTTATCTGT` , switch fluorescence ratio observed: 1.01

The sequence identified as `GATCAGAGGG` registered its switch fluorescence ratio at 1.01

The recorded switch fluorescence ratio for entry `TTTTGGTTAG` equals 0.983

Record `TAGAGTAGTG` . Reported switch fluorescence ratio: 0.999

Lab note: measured switch fluorescence ratio of `AGAGTGCTTC` was 0.999

Reported switch fluorescence ratio ( `GATGCTAGAT` ) = 1.01
